- assay-explanation: in vivo
- study-conditions: Sprague-Dawley, rat, po, 30 mg/kg
measured-attribute: Cmax
The reply should read as a number followed by its unit.

Form field Cmax, entry `Cc1nc(Nc2ncc(C(=O)Nc3c(C)cccc3Cl)s2)cc(N2CCN(CCO)CC2)n1` : 60 nM
